Test system: XIP peptide (Xip251-270) binding
Assay: small-molecule binders of XIP peptide, primary screen, biochemical, small-molecule microarray, fluorescence 635/667 nm, 0.1 µg/mL protein (AID 1182)
Settings: fluorescent protein binding, 635 nm, higher = more signal, called active from +8 up or from −8 down
Rule: criterion met for composite z-score not less than 0.3, criterion not met for anything less.

Solved cases below.
# Smiles Representation, Classification
records = [
    ("COc1ccc([Si](C)(C)[C@H]2[C@H](CCn3cc(CCO)nn3)O[C@@]3(C(=O)N(Cc4ccc(N5C(=O)c6cccc7cccc5c67)cc4)c4ccccc43)[C@@H]2C)cc1", "criterion not met"),
    ("CCCC[C@@H]1C[C@H]1[C@@H](NC(=O)c1cccnc1)c1ccc(-c2ccccc2)cc1", "criterion not met"),
    ("C=CC[C@]1(C(=O)N(C)C)N=C(c2ccc(OCCCO)cc2)O[C@H]1c1ccccc1N=[N+]=[N-]", "criterion met"),
    ("CC(C)NC(=O)[C@@]1(C)c2ccccc2C(=O)N(C(C)C)[C@H]1c1ccc(CO)cc1", "criterion met"),
    ("COC(=O)[C@@]1(Cc2ccc(OC)cc2)[C@H]2c3cc(C(=O)N(C)C)n(CCc4c[nH]c5ccc(O)cc45)c3C[C@H]2CN1C(=O)c1ccccc1", "criterion met"),
    ("CC(C)C(=C=CC[C@H](O)c1ccc(OCCO)cc1)C[C@H](O)c1cc(Cl)cc(Cl)c1O", "criterion not met"),
]

Here is another compound to look at.
(Q) Does composite z-score meet or surpass 0.3 for C=C(CCCC)/C(=C/C[C@@H](OC(C)=O)c1ccc(CO)o1)c1cc(C(=O)OC)ccc1OC ?
(A) criterion not met
